target-under-test: hCAI isoenzyme purified from human erythrocytes (Homo sapiens)
Construct: hCAI isoenzyme purified from human erythrocytes; from tissue; host or cells: human erythrocytes
Sequence (P00915 whole entry): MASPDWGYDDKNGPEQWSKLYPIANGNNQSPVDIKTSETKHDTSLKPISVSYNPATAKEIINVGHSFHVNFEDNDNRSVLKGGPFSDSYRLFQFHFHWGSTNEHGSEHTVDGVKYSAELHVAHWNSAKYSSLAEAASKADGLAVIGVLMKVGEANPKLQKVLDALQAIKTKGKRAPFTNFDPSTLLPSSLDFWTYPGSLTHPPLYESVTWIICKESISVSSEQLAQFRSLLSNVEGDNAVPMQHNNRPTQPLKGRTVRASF
procedure-text: Inhibition of esterase activity (p-nitrophenyl acetate) of purified hCAI; IC50, Ki, inhibition type
Type: biochemical
assay-context: three inhibitor concentrations, five substrate concentrations (0.15–0.75 mM); read-out: Average Ki
measurement-kind: pKi
Friendly reminder that pKi comes from taking -log10 of the concentration in mol/L.

Kindly state the measured pKi obtained for O=C([O-])c1ccccc1-c1c2cc(I)c(=O)c(I)c-2oc2c(I)c([O-])c(I)cc12.[Na+].[Na+] with hCAI isoenzyme purified from human erythrocytes (Homo sapiens).
5.55
